# maps each entry to its pIC50
# measuredOn: H1047R PIK3CA enzyme (Homo sapiens, UniProt P42336, H1047R)
# Sequence (P42336 whole entry H1047R): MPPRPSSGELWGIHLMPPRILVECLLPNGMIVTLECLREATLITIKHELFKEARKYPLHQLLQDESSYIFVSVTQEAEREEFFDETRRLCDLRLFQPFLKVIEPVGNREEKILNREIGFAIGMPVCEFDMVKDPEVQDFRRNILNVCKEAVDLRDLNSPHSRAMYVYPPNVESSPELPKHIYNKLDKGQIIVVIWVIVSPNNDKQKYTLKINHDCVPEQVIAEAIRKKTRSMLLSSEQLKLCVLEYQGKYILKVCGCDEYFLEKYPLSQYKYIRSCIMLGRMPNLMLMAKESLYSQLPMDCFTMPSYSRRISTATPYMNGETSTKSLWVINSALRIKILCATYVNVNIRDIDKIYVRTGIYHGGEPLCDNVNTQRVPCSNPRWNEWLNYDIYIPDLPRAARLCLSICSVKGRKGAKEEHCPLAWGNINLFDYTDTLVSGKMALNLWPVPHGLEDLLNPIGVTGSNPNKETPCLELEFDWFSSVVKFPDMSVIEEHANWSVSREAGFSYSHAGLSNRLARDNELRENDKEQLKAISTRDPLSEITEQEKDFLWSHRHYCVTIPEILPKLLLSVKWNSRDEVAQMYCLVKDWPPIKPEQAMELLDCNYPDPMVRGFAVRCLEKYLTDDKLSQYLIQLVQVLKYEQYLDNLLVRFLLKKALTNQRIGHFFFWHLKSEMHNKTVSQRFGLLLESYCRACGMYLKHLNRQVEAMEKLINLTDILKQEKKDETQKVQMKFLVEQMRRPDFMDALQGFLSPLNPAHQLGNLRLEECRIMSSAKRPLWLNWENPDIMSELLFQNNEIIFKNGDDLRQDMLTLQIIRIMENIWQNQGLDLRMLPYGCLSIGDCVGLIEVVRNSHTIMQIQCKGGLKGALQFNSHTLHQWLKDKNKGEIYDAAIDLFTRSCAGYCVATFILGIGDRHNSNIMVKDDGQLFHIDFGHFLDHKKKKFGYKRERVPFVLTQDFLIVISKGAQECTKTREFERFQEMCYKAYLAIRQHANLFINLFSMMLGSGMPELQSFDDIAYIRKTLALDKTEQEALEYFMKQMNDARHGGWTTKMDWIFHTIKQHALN
# Sequence (P27986 whole entry partner): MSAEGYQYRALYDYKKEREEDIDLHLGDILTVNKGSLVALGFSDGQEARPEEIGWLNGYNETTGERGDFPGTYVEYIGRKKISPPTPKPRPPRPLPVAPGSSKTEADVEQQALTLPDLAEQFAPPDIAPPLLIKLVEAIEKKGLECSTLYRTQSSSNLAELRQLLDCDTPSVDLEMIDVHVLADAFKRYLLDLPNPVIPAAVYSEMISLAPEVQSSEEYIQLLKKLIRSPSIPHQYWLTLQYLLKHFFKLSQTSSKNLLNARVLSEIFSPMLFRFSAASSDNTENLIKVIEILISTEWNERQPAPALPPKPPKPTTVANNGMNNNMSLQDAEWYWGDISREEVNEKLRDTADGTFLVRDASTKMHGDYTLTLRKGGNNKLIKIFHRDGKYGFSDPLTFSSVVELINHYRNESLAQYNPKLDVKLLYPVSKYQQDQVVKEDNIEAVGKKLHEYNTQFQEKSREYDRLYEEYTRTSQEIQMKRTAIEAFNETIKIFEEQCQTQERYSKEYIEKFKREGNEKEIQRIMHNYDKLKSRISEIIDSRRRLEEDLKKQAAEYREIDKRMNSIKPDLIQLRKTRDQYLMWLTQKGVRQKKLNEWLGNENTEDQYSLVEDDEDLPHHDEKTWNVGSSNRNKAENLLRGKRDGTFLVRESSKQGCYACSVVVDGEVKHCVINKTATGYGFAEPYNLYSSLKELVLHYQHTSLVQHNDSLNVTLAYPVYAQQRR
# methodNotes: ADP-Glo Biochemical PIK3CA Kinase Assay
# Description: Compounds to be assayed were plated in 16 doses of 1:2 serial dilutions (20 nL volume each well) on a 1536-well plate, and the plate warmed to room temperature. […] To the well was added 1 μL of 200 μM ATP and 20 μM of diC8-PIP2 in Substrate Assay Buffer (50 mM HEPES pH7.4, 50 mM NaCl, 5 mM DTT and 0.03% CHAPS) to start the reaction, and the plate was shaken for 10 seconds, then spun briefly at 1500 rpm, and then incubated for 60 minutes at room temperature. […]
pIC50: −log10 of the molar value.

Consider the reported pIC50 for these molecules:
{"columns": ["molecule", "pIC50"],
 "data": [
  ["O=C(Nc1cc(NCC(F)(F)F)nc2c1C(c1cc(F)ccc1Cl)NC2=O)c1cc(F)cc(C(F)(F)F)c1 (centres unmarked)", "≥ 7.00"],
  ["O=C1NC(c2cc(F)ccc2Cl)c2c1cccc2-n1ccc2ccccc2c1=O (centres unmarked)", "4.00 to 5.00"],
  ["O=C(Nc1cc(-c2cncs2)cc2c1C(c1cc(F)ccc1Cl)NC2=O)c1cc(F)cc(C(F)(F)F)c1 (centres unmarked)", "≥ 7.00"],
  ["COc1cccc(-c2cccc3c2C(c2ccccc2C)NC3=O)n1 (centres unmarked)", "4.00 to 5.00"],
  ["O=C1NC(c2cc(F)ccc2Cl)c2c(NC(=O)N3CC(O)c4cc(F)ccc43)cc(-c3cnn(C(F)F)c3)cc21 (centres unmarked)", "≥ 7.00"]
]}

q: Request body: readout pIC50, system H1047R PIK3CA enzyme (Homo sapiens, UniProt P42336, H1047R), query O=C(Nc1cccc2c1C(c1cc(-c3ccccc3)ccc1Cl)NC2=O)c1cc(F)cc(C(F)(F)F)c1 (centres unmarked) . Return the value.
a: 5.00 to 6.00

q: Request body: readout pIC50, system H1047R PIK3CA enzyme (Homo sapiens, UniProt P42336, H1047R), query CC(C)(C)C1CCCN1C(=O)Nc1cccc2c1C(c1cc(F)ccc1Cl)NC2=O (single isomer, unassigned) [Compound I-2433] . Return the value.
a: 5.00 to 6.00

q: Request body: readout pIC50, system H1047R PIK3CA enzyme (Homo sapiens, UniProt P42336, H1047R), query `[2H]c1nc2cnc(-c3cc(NC(=O)c4cc(F)cc(C(F)(F)F)c4)c4c(c3)C(=O)N[C@H]4c3cc(F)ccc3Cl)cn2n1` . Return the value.
a: ≥ 7.00

q: Request body: readout pIC50, system H1047R PIK3CA enzyme (Homo sapiens, UniProt P42336, H1047R), query Cc1ccccc1C1NC(=O)c2nccc(NC(=O)N3CCc4ccc(F)cc43)c21 (centres unmarked) . Return the value.
a: 6.00 to 6.30

q: Request body: readout pIC50, system H1047R PIK3CA enzyme (Homo sapiens, UniProt P42336, H1047R), query CS(=O)(=O)N1CCC[C@H](Oc2cc(NC(=O)c3cc(F)cc(C(F)(F)F)c3)c3c(c2)C(=O)NC3c2cc(F)ccc2Cl)C1 (mixture of isomers) . Return the value.
a: 6.30 to 7.00

q: Request body: readout pIC50, system H1047R PIK3CA enzyme (Homo sapiens, UniProt P42336, H1047R), query NC(=O)c1cc(-c2ccc3ncnn3c2)cc2c1C(c1cc(F)ccc1Cl)NC2=O (centres unmarked) . Return the value.
a: 5.00 to 6.00

q: Request body: readout pIC50, system H1047R PIK3CA enzyme (Homo sapiens, UniProt P42336, H1047R), query O=C(Nc1cc(-c2ccn[nH]2)cc2c1C(c1cc(F)ccc1Cl)NC2=O)c1cc(F)cc(C(F)(F)F)c1 (centres unmarked) . Return the value.
a: ≥ 7.00

q: Request body: readout pIC50, system H1047R PIK3CA enzyme (Homo sapiens, UniProt P42336, H1047R), query Nc1cnc2ccc(-c3cc(NC(=O)c4cc(F)cc(C(F)(F)F)c4)c4c(c3)C(=O)NC4c3cc(F)ccc3Cl)cn12 (centres unmarked) . Return the value.
a: ≥ 7.00
